# condition_set: in methanol, 303.15 K
recorded_metric: solubility (mole fraction)

1. CC[C@H]1OC(=O)[C@H](C)[C@@H](O[C@H]2C[C@@](C)(OC)[C@@H](O)[C@H](C)O2)[C@H](C)[C@@H](O[C@@H]2O[C@H](C)C[C@H](N(C)C)[C@H]2O)[C@](C)(O)C[C@@H](C)C(=O)[C@H](C)[C@@H](O)[C@]1(C)O.N#CS.O.O ... 0.0158

---

# condition_set: in methanol, 308.15 K
recorded_metric: solubility (mole fraction)

1. CC[C@H]1OC(=O)[C@H](C)[C@@H](O[C@H]2C[C@@](C)(OC)[C@@H](O)[C@H](C)O2)[C@H](C)[C@@H](O[C@@H]2O[C@H](C)C[C@H](N(C)C)[C@H]2O)[C@](C)(O)C[C@@H](C)C(=O)[C@H](C)[C@@H](O)[C@]1(C)O.N#CS.O.O ... 0.0173

---

# condition_set: in methanol, 298.15 K
recorded_metric: solubility (mole fraction)

1) CC[C@H]1OC(=O)[C@H](C)[C@@H](O[C@H]2C[C@@](C)(OC)[C@@H](O)[C@H](C)O2)[C@H](C)[C@@H](O[C@@H]2O[C@H](C)C[C@H](N(C)C)[C@H]2O)[C@](C)(O)C[C@@H](C)C(=O)[C@H](C)[C@@H](O)[C@]1(C)O.N#CS.O.O ... 0.0144

---

# condition_set: in n-propanol, 308.15 K
recorded_metric: solubility (mole fraction)

1. CC[C@H]1OC(=O)[C@H](C)[C@@H](O[C@H]2C[C@@](C)(OC)[C@@H](O)[C@H](C)O2)[C@H](C)[C@@H](O[C@@H]2O[C@H](C)C[C@H](N(C)C)[C@H]2O)[C@](C)(O)C[C@@H](C)C(=O)[C@H](C)[C@@H](O)[C@]1(C)O.N#CS.O.O ... 0.00643

---

# condition_set: in methanol, 313.15 K
recorded_metric: solubility (mole fraction)

1) CC[C@H]1OC(=O)[C@H](C)[C@@H](O[C@H]2C[C@@](C)(OC)[C@@H](O)[C@H](C)O2)[C@H](C)[C@@H](O[C@@H]2O[C@H](C)C[C@H](N(C)C)[C@H]2O)[C@](C)(O)C[C@@H](C)C(=O)[C@H](C)[C@@H](O)[C@]1(C)O.N#CS.O.O ... 0.0189

---

# condition_set: in methanol, 288.15 K
recorded_metric: solubility (mole fraction)

1. CC[C@H]1OC(=O)[C@H](C)[C@@H](O[C@H]2C[C@@](C)(OC)[C@@H](O)[C@H](C)O2)[C@H](C)[C@@H](O[C@@H]2O[C@H](C)C[C@H](N(C)C)[C@H]2O)[C@](C)(O)C[C@@H](C)C(=O)[C@H](C)[C@@H](O)[C@]1(C)O.N#CS.O.O ... 0.0119

---

# condition_set: in isopropanol, 318.15 K
recorded_metric: solubility (mole fraction)

1) CC[C@H]1OC(=O)[C@H](C)[C@@H](O[C@H]2C[C@@](C)(OC)[C@@H](O)[C@H](C)O2)[C@H](C)[C@@H](O[C@@H]2O[C@H](C)C[C@H](N(C)C)[C@H]2O)[C@](C)(O)C[C@@H](C)C(=O)[C@H](C)[C@@H](O)[C@]1(C)O.N#CS.O.O ... 0.00227

---

# condition_set: in ethanol, 288.15 K
recorded_metric: solubility (mole fraction)

1) CC[C@H]1OC(=O)[C@H](C)[C@@H](O[C@H]2C[C@@](C)(OC)[C@@H](O)[C@H](C)O2)[C@H](C)[C@@H](O[C@@H]2O[C@H](C)C[C@H](N(C)C)[C@H]2O)[C@](C)(O)C[C@@H](C)C(=O)[C@H](C)[C@@H](O)[C@]1(C)O.N#CS.O.O ... 0.00426

---

# condition_set: in isopropanol, 288.15 K
recorded_metric: solubility (mole fraction)

1) CC[C@H]1OC(=O)[C@H](C)[C@@H](O[C@H]2C[C@@](C)(OC)[C@@H](O)[C@H](C)O2)[C@H](C)[C@@H](O[C@@H]2O[C@H](C)C[C@H](N(C)C)[C@H]2O)[C@](C)(O)C[C@@H](C)C(=O)[C@H](C)[C@@H](O)[C@]1(C)O.N#CS.O.O ... 0.00104

---

# condition_set: in isopropanol, 308.15 K
recorded_metric: solubility (mole fraction)

1) CC[C@H]1OC(=O)[C@H](C)[C@@H](O[C@H]2C[C@@](C)(OC)[C@@H](O)[C@H](C)O2)[C@H](C)[C@@H](O[C@@H]2O[C@H](C)C[C@H](N(C)C)[C@H]2O)[C@](C)(O)C[C@@H](C)C(=O)[C@H](C)[C@@H](O)[C@]1(C)O.N#CS.O.O ... 0.00175

---

# condition_set: in isopropanol, 313.15 K
recorded_metric: solubility (mole fraction)

1) CC[C@H]1OC(=O)[C@H](C)[C@@H](O[C@H]2C[C@@](C)(OC)[C@@H](O)[C@H](C)O2)[C@H](C)[C@@H](O[C@@H]2O[C@H](C)C[C@H](N(C)C)[C@H]2O)[C@](C)(O)C[C@@H](C)C(=O)[C@H](C)[C@@H](O)[C@]1(C)O.N#CS.O.O ... 0.002

---

# condition_set: in n-propanol, 298.15 K
recorded_metric: solubility (mole fraction)

1. CC[C@H]1OC(=O)[C@H](C)[C@@H](O[C@H]2C[C@@](C)(OC)[C@@H](O)[C@H](C)O2)[C@H](C)[C@@H](O[C@@H]2O[C@H](C)C[C@H](N(C)C)[C@H]2O)[C@](C)(O)C[C@@H](C)C(=O)[C@H](C)[C@@H](O)[C@]1(C)O.N#CS.O.O ... 0.00488

---

# condition_set: in n-propanol, 293.15 K
recorded_metric: solubility (mole fraction)

1. CC[C@H]1OC(=O)[C@H](C)[C@@H](O[C@H]2C[C@@](C)(OC)[C@@H](O)[C@H](C)O2)[C@H](C)[C@@H](O[C@@H]2O[C@H](C)C[C@H](N(C)C)[C@H]2O)[C@](C)(O)C[C@@H](C)C(=O)[C@H](C)[C@@H](O)[C@]1(C)O.N#CS.O.O ... 0.00437

---

# condition_set: in ethanol, 293.15 K
recorded_metric: solubility (mole fraction)

1) CC[C@H]1OC(=O)[C@H](C)[C@@H](O[C@H]2C[C@@](C)(OC)[C@@H](O)[C@H](C)O2)[C@H](C)[C@@H](O[C@@H]2O[C@H](C)C[C@H](N(C)C)[C@H]2O)[C@](C)(O)C[C@@H](C)C(=O)[C@H](C)[C@@H](O)[C@]1(C)O.N#CS.O.O ... 0.00475

---

# condition_set: in n-propanol, 318.15 K
recorded_metric: solubility (mole fraction)

1) CC[C@H]1OC(=O)[C@H](C)[C@@H](O[C@H]2C[C@@](C)(OC)[C@@H](O)[C@H](C)O2)[C@H](C)[C@@H](O[C@@H]2O[C@H](C)C[C@H](N(C)C)[C@H]2O)[C@](C)(O)C[C@@H](C)C(=O)[C@H](C)[C@@H](O)[C@]1(C)O.N#CS.O.O ... 0.00841

---

# condition_set: in isopropanol, 303.15 K
recorded_metric: solubility (mole fraction)

1. CC[C@H]1OC(=O)[C@H](C)[C@@H](O[C@H]2C[C@@](C)(OC)[C@@H](O)[C@H](C)O2)[C@H](C)[C@@H](O[C@@H]2O[C@H](C)C[C@H](N(C)C)[C@H]2O)[C@](C)(O)C[C@@H](C)C(=O)[C@H](C)[C@@H](O)[C@]1(C)O.N#CS.O.O ... 0.00157

---

# condition_set: in ethanol, 308.15 K
recorded_metric: solubility (mole fraction)

1) CC[C@H]1OC(=O)[C@H](C)[C@@H](O[C@H]2C[C@@](C)(OC)[C@@H](O)[C@H](C)O2)[C@H](C)[C@@H](O[C@@H]2O[C@H](C)C[C@H](N(C)C)[C@H]2O)[C@](C)(O)C[C@@H](C)C(=O)[C@H](C)[C@@H](O)[C@]1(C)O.N#CS.O.O ... 0.00679

---

# condition_set: in ethanol, 298.15 K
recorded_metric: solubility (mole fraction)

1. CC[C@H]1OC(=O)[C@H](C)[C@@H](O[C@H]2C[C@@](C)(OC)[C@@H](O)[C@H](C)O2)[C@H](C)[C@@H](O[C@@H]2O[C@H](C)C[C@H](N(C)C)[C@H]2O)[C@](C)(O)C[C@@H](C)C(=O)[C@H](C)[C@@H](O)[C@]1(C)O.N#CS.O.O ... 0.00525

---

# condition_set: in isopropanol, 293.15 K
recorded_metric: solubility (mole fraction)

1. CC[C@H]1OC(=O)[C@H](C)[C@@H](O[C@H]2C[C@@](C)(OC)[C@@H](O)[C@H](C)O2)[C@H](C)[C@@H](O[C@@H]2O[C@H](C)C[C@H](N(C)C)[C@H]2O)[C@](C)(O)C[C@@H](C)C(=O)[C@H](C)[C@@H](O)[C@]1(C)O.N#CS.O.O ... 0.00121
